Please provide measured neutralization IC50 for the entries that follow.
Test System: HIV-1 strain AC10.0.29 envelope (gp120) (HIV-1)
Test Protocol: cell-based or functional assay
Numeric answer only, unit µg/mL assumed.

**Q:** Please give the measured neutralization IC50 for this binder: 3BNC117 IgG (antibody, V domains shown) VH: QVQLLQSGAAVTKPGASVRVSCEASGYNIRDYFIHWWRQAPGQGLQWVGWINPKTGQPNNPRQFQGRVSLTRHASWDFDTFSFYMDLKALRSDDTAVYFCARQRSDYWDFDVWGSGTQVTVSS VL: DIQMTQSPSSLSASVGDTVTITCQANGYLNWYQQRRGKAPKLLIYDGSKLERGVPSRFSGRRWGQEYNLTINNLQPEDIATYFCQVYEFVVPGTRLDLKRTVA
**A:** 6.5

**Q:** Please give the measured neutralization IC50 for this binder: 12A12 IgG (antibody, V domains shown) VH: SQHLVQSGTQVKKPGASVRISCQASGYSFTDYVLHWWRQAPGQGLEWMGWIKPVYGARNYARRFQGRINFDRDIYREIAFMDLSGLRSDDTALYFCARDGSGDDTSWHLDPWGQGTLVIVSA VL: DIQMTQSPSSLSASVGDRVTITCQAGQGIGSSLQWYQQKPGKAPKLLVHGASNLHRGVPSRFSGSGFHTTFSLTISGLQRDDFATYFCAVLEFFGPGTKVEIKR
**A:** 0.6

The reported numbers originate from patent US20130209454A1.
